Assay: human liver microsome (HLM) metabolic stability assay
Type: in vitro ADME
Settings: human liver microsomes; % hepatic blood flow calculated from t1/2
HLM (% Qh): recorded values
Observed property: HLM (% Qh)

{"Molecule": "COc1c(C(=O)O)cnn1-c1cccc(-c2cccc(C(F)(F)F)c2OCc2ccc3c(c2)CN(C2CCOCC2)C3)n1", "Assay value": "<24 % Qh"}
{"Molecule": "COc1c(C(=O)O)cnn1-c1cccc(-c2cccc(C)c2OCc2cc3c(cc2C)CN(C2CCOCC2)CC3)n1", "Assay value": "<24 % Qh"}
{"Molecule": "CCOc1c(C(=O)O)cnn1-c1cccc(-c2cccc(C)c2OCc2ccc3c(c2)CCN(CC2CCOC(C)(C)C2)C3)n1 (stereo not drawn)", "Assay value": "<24 % Qh"}

* * *

solubility at 24 h: recorded values
Assay: Assessment of solubility (McIlvaine buffers, 24 h shake, UPLC-UV)
Assay type: physicochemical
Conditions: pH 4.5, aqueous buffer, kinetic from dmso stock

{"Compound": "COc1c(C(=O)O)cnn1-c1cccc(-c2cccc(C)c2OCc2ccc3c(c2)CCN(CCS(C)(=O)=O)C3)n1 [Compound 74]", "solubility at 24 h, µg/mL": 83}
{"Compound": "COc1c(C(=O)O)cnn1-c1cccc(-c2cccc(C)c2OCc2ccc3c(c2C)CCN(C[C@H]2CCCCO2)C3)n1 [Compound 199]", "solubility at 24 h, µg/mL": 96}
{"Compound": "CCOc1c(C(=O)O)cnn1-c1cccc(-c2cccc(C)c2OCc2ccc3c(c2C)CCN(C[C@H]2CCCCO2)C3)n1 [Compound 232]", "solubility at 24 h, µg/mL": 74}

* * *

Biological target: human soluble guanylate cyclase alpha 1 and beta 1 subunits (sGC) (Homo sapiens, UniProt Q02108+Q02153)
Assay: sGC cellular activator assay (cGMP, HTRF)
Conditions: CHO cells stably expressing human sGC alpha 1/beta 1, preincubated with 40 microM ODQ; cGMP readout; assay run with and without 50% human serum, Table 2 does not say which
pEC50: −log10 of the molar value.

{"Compound": "Cc1cccc(-c2cccc(-n3ncc(C(=O)O)c3OC(C)C)n2)c1OCc1ccc2c(c1)CCN(C1CCC(F)(F)CC1)C2", "pEC50": 7.96}
{"Compound": "CCOc1c(C(=O)O)cnn1-c1cccc(-c2cccc(C)c2OCc2ccc3c(c2)CCN(CC2(C)COC2)C3)n1", "pEC50": 7.19}
{"Compound": "COc1c(C(=O)O)cnn1-c1cccc(-c2cccc(C)c2OCc2ccc3c(c2C)CCN(C[C@H]2CCCCO2)C3)n1", "pEC50": 8.05}
{"Compound": "COc1c(C(=O)O)cnn1-c1cccc(-c2cccc(C)c2OCc2cc(C)c3c(c2C)CCN(C2CCOCC2)C3)n1", "pEC50": 7.92}
{"Compound": "COc1c(C(=O)O)cnn1-c1cccc(-c2cccc(C)c2OCc2ccc3c(c2)CCN(C[C@@H]2CCOC2)C3)n1", "pEC50": 8.07}
{"Compound": "CCOc1c(C(=O)O)cnn1-c1cccc(-c2cccc(C)c2OCc2ccc3c(c2C)CCN(CC2(C)COC2)CC3)n1", "pEC50": 7.64}
{"Compound": "Cc1cccc(-c2cccc(-n3ncc(C(=O)O)c3OC(C)C)n2)c1OCc1ccc2c(c1C)CCN([C@@H]1CCCOC1)C2", "pEC50": 7.55}
{"Compound": "COc1c(C(=O)O)cnn1-c1cccc(-c2cccc(C)c2OCc2cc(C#N)c3c(c2)CCN(C2CCOCC2)C3)n1", "pEC50": 7.36}
{"Compound": "Cc1cccc(-c2cccc(-n3ncc(C(=O)O)c3OC(C)C)n2)c1OCc1ccc2c(c1)CCN(C1CCOC1)C2 (stereo not shown)", "pEC50": 7.57}
{"Compound": "COc1c(C(=O)O)cnn1-c1cccc(-c2cccc(C)c2OCc2cc(F)c3c(c2)CCN(C[C@H]2CCCCO2)C3)n1", "pEC50": 8.41}
{"Compound": "CCOc1c(C(=O)O)cnn1-c1cccc(-c2cccc(C)c2OCc2ccc3c(c2C)CCN([C@H]2CCOC2)C3)n1", "pEC50": 7.57}
{"Compound": "Cc1cccc(-c2cccc(-n3ncc(C(=O)O)c3OC(C)C)n2)c1OCc1ccc2c(c1)CCN(C1CCCOC1)C2 (stereo not shown)", "pEC50": 7.62}
{"Compound": "COc1c(C(=O)O)cnn1-c1cccc(-c2cccc(C)c2OCc2cc(C)c3c(c2)CCN(CC2(C)COC2)C3)n1", "pEC50": 8.19}

* * *

Experiment: Assessment of solubility (McIlvaine buffers, 24 h shake, UPLC-UV)
Type: physicochemical
Settings: pH 2.2, aqueous buffer, kinetic from dmso stock
Give 1 (yes) when the value for solubility at 24 h is at least 100 µg/mL. Give 0 (no) when it is less.

{"Record smiles": "Cc1cccc(-c2cccc(-n3ncc(C(=O)O)c3OC(C)C)n2)c1OCc1ccc2c(c1C)CCN(C1CCOCC1)C2", "Label class": "1 (yes)"}
{"Record smiles": "COc1c(C(=O)O)cnn1-c1cccc(-c2cccc(C)c2OCc2ccc3c(c2)CCN(C2CC(C)(C)OC(C)(C)C2)C3)n1", "Label class": "0 (no)"}
{"Record smiles": "COc1c(C(=O)O)cnn1-c1cccc(-c2cccc(C)c2OCc2ccc3c(c2C)CCN(C2CCOCC2)C3)n1", "Label class": "1 (yes)"}
{"Record smiles": "CCOc1c(C(=O)O)cnn1-c1cccc(-c2cccc(C)c2OCc2ccc3c(c2C)CCN(C2COC(C)(C)OC2)C3)n1", "Label class": "0 (no)"}
{"Record smiles": "COc1c(C(=O)O)cnn1-c1cccc(-c2cccc(C)c2OCc2ccc3c(c2C)CCN(S(C)(=O)=O)C3)n1", "Label class": "0 (no)"}
{"Record smiles": "CCOc1c(C(=O)O)cnn1-c1cccc(-c2cccc(C)c2OCc2ccc3c(c2C)CCN(C2CCOCC2)C3)n1", "Label class": "1 (yes)"}
{"Record smiles": "COc1c(C(=O)O)cnn1-c1cccc(-c2cccc(C)c2OCc2ccc3c(c2F)CCN([C@@H]2CCOC2)C3)n1", "Label class": "0 (no)"}

* * *

Assay: Assessment of solubility (McIlvaine buffers, 24 h shake, UPLC-UV)
Type: physicochemical
Settings: pH 4.5, aqueous buffer, kinetic from dmso stock
Procedure: Solubility is measured by the following method. 100 uL, 10 mM DMSO stock solution of each compound is prepared in a 96 well plate format. The experiment is done in single determination at 3 pH values (2.2, 4.5 and 6.8). For each pH and one reference, 40 uL of each compound is needed. McIlvaine pH 2.2: To 2.076 g citric acid monohydrate and 0.043 g Na2HPO4×2H2O add 100 ml deionized water […] The samples are measured with UPLC-UV using the chromatographic method described below. […]
Observed property: solubility at 24 h (µg/mL)

{"Molecule": "CCOc1c(C(=O)O)cnn1-c1cccc(-c2cccc(C)c2OCc2ccc3c(c2C)CCN(C2CCOCC2)C3)n1", "Observed property": "solubility at 24 h", "Value unit": "µg/mL", "Assay value": 99}
{"Molecule": "COc1c(C(=O)O)cnn1-c1cccc(-c2cccc(Cl)c2OCc2ccc3c(c2)CCN(C2COC2)C3)n1", "Observed property": "solubility at 24 h", "Value unit": "µg/mL", "Assay value": 77}
{"Molecule": "COc1c(C(=O)O)cnn1-c1cccc(-c2cccc(C)c2OCc2ccc3c(c2F)CCN([C@H]2CCOC2)C3)n1", "Observed property": "solubility at 24 h", "Value unit": "µg/mL", "Assay value": 72}
{"Molecule": "CCOc1c(C(=O)O)cnn1-c1cccc(-c2cccc(C)c2OCc2ccc3c(c2C)CCN(C[C@@H]2CCCO2)CC3)n1", "Observed property": "solubility at 24 h", "Value unit": "µg/mL", "Assay value": 83}
{"Molecule": "COc1c(C(=O)O)cnn1-c1cccc(-c2cccc(C)c2OCc2cc(C)c3c(c2)CCN(C2CCOC2)C3)n1 (stereo not shown)", "Observed property": "solubility at 24 h", "Value unit": "µg/mL", "Assay value": 79}
{"Molecule": "COc1c(C(=O)O)cnn1-c1cccc(-c2cccc(C(F)(F)F)c2OCc2ccc3c(c2)CN(C2CCOCC2)C3)n1", "Observed property": "solubility at 24 h", "Value unit": "µg/mL", "Assay value": 77}
{"Molecule": "COc1c(C(=O)O)cnn1-c1cccc(-c2cccc(C)c2OCc2ccc3c(c2C)CCN(C[C@@H]2CCCCO2)C3)n1", "Observed property": "solubility at 24 h", "Value unit": "µg/mL", "Assay value": 100}

* * *

Biological target: human soluble guanylate cyclase alpha 1 and beta 1 subunits (sGC) (Homo sapiens, UniProt Q02108+Q02153)
Sequence (Q02108 1-690): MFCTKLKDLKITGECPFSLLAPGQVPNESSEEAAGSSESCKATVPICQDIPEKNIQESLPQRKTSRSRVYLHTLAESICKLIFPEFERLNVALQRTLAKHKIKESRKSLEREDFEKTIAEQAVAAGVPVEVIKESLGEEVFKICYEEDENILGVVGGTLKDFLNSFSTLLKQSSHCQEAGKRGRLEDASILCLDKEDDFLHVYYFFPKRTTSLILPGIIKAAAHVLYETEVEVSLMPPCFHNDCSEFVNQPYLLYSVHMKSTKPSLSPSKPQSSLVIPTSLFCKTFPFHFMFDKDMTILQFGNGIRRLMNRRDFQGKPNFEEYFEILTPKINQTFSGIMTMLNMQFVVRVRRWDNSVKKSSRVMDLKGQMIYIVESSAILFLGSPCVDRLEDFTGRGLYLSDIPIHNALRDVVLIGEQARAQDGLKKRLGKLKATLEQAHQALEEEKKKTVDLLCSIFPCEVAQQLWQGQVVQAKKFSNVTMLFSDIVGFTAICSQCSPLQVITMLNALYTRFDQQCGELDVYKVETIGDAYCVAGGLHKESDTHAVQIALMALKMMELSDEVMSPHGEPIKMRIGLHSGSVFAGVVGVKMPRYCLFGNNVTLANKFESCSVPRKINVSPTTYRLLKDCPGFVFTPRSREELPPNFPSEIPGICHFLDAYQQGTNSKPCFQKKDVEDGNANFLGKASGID
Sequence (Q02153 1-619): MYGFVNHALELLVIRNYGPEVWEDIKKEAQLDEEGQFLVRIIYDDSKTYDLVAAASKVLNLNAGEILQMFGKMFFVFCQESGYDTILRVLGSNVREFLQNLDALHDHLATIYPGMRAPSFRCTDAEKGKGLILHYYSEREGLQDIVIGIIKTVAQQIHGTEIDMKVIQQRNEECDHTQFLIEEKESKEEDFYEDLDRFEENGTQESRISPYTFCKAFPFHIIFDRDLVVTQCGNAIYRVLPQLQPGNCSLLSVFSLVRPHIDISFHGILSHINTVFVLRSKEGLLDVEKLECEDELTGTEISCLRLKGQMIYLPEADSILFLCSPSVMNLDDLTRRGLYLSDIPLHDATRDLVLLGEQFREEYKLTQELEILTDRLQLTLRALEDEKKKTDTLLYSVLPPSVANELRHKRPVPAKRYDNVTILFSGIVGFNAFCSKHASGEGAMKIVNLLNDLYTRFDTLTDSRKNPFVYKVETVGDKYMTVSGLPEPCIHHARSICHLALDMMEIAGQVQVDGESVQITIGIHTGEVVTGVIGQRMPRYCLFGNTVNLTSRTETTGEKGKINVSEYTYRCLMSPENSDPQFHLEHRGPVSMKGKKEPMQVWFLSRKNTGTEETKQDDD
Assay: sGC cellular activator assay (cGMP, HTRF)
Settings: CHO cells stably expressing human sGC alpha 1/beta 1, preincubated with 40 microM ODQ; cGMP readout; assay run with and without 50% human serum, Table 2 does not say which

{"Compound": "CC[C@H](C)Oc1c(C(=O)O)cnn1-c1cccc(-c2cccc(C)c2OCc2ccc3c(c2C)CCN(C2CCOCC2)C3)n1 [Compound 136]", "EC50 [nM]": 81}
{"Compound": "COc1c(C(=O)O)cnn1-c1cccc(-c2cccc(C)c2OCc2ccc3c(c2C)CCN(C2CCCOC2)C3)n1 (centres unmarked) [Compound 238]", "EC50 [nM]": 5.1}
{"Compound": "CCOc1c(C(=O)O)cnn1-c1cccc(-c2cccc(C)c2OCc2ccc3c(c2)CCN(C2CC(C)(C)OC(C)(C)C2)C3)n1 [Compound 67]", "EC50 [nM]": 320}
{"Compound": "CCOc1c(C(=O)O)cnn1-c1cccc(-c2cccc(C)c2OCc2ccc3c(c2C)CCN(C[C@H]2CCCCO2)C3)n1 [Compound 232]", "EC50 [nM]": 9.5}
{"Compound": "CCOc1c(C(=O)O)cnn1-c1cccc(-c2cccc(C)c2OCc2ccc3c(c2C)CCN(CCOCCO)C3)n1 [Compound 168]", "EC50 [nM]": 580}
{"Compound": "COc1c(C(=O)O)cnn1-c1cccc(-c2cccc(C(F)(F)F)c2OCc2ccc3c(c2C)CCN(C2CCOCC2)C3)n1 [Compound 84]", "EC50 [nM]": 9}
{"Compound": "COc1c(C(=O)O)cnn1-c1cccc(-c2cccc(C)c2OCc2ccc3c(c2C)CCN(C[C@@H]2CCOC2)C3)n1 [Compound 191]", "EC50 [nM]": 3.3}
{"Compound": "COc1c(C(=O)O)cnn1-c1cccc(-c2cccc(C)c2OCc2ccc3c(c2C)CCN([C@@H]2CCCOC2)C3)n1 [Compound 140]", "EC50 [nM]": 15}
{"Compound": "Cc1cccc(-c2cccc(-n3ncc(C(=O)O)c3OC(C)C)n2)c1OCc1ccc2c(c1)CCN(CC1CC(F)(F)C1)C2 [Compound 4]", "EC50 [nM]": 11}
{"Compound": "COc1c(C(=O)O)cnn1-c1cccc(-c2cccc(C)c2OCc2ccc3c(c2)C(C)(C)CN(C2CCCOC2)C3)n1 (centres unmarked) [Compound 218]", "EC50 [nM]": 62}
{"Compound": "CCOc1c(C(=O)O)cnn1-c1cccc(-c2cccc(C)c2OCc2ccc3c(c2C)CCN(C[C@@H]2COCCO2)CC3)n1 [Compound 211]", "EC50 [nM]": 30}
{"Compound": "COc1c(C(=O)O)cnn1-c1cccc(-c2cccc(C)c2OCc2ccc3c(c2F)CCN(C2COC2)C3)n1 [Compound 177]", "EC50 [nM]": 35}
{"Compound": "CCOc1c(C(=O)O)cnn1-c1cccc(-c2cccc(C)c2OCc2ccc3c(c2)CCN(CC2CC(F)(F)C2)C3)n1 [Compound 96]", "EC50 [nM]": 24}
{"Compound": "CCOc1c(C(=O)O)cnn1-c1cccc(-c2cccc(C)c2OCc2ccc3c(c2)CCN(C2CCOC2C)C3)n1 (centres unmarked) [Compound 71]", "EC50 [nM]": 67}

Cited source: patent US8906904B2
